Listing of recorded relative KD to VH0/Vκ0 by entry.
# STUDY_SYSTEM: T1, His-tagged CEACAM1 (human, UniProt P13688 35-428)
# T1 construct: 45 kDa SPR analyte; also called CEACAM1-HIS; CEACAM1 analyte
# T1 sequence: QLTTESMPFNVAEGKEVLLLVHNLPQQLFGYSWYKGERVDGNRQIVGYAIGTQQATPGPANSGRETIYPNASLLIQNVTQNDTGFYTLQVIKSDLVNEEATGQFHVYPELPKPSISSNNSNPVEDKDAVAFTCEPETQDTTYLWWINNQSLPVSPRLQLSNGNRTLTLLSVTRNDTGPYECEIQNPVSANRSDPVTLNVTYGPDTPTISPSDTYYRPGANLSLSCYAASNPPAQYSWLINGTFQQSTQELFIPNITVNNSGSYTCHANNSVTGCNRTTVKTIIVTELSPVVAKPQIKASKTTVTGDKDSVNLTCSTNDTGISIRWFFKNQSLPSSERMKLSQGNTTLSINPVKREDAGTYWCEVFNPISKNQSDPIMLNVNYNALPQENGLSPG
# ASSAY_PROTOCOL: SPR multi-cycle, IgG captured
Please state the value as a number alone, without comment.

Check out these entries, answers already filled in.
{"BINDER": "VH2/Vκ7 (antibody, IgG4, V domains shown, IgG4 (S241P), kappa) VH: EVQLLESGGGLVQPGGSLRLSCAASGFIFSSHGMSWVRQAPGKGLEWVATISSGGTYTYYPDSVKGRFTISRDNSKNTLYLQMNSLRAEDTAMYYCARHDFDYDAAWFAYWGQGTLVTVSS VL: EIVLTQSPATLSLSPGERATLSCRANSSVSYMYWYQQKPGQAPRPWIYLTSNRATGVPARFSGSGSGTDFTLTISSLEPEDFATYYCQQWSSNPPTFGQGTKLEIK", "REPORTED_RESULT": 2.4}
{"BINDER": "VH2/Vκ11 (antibody, IgG4, V domains shown, IgG4 (S241P), kappa) VH: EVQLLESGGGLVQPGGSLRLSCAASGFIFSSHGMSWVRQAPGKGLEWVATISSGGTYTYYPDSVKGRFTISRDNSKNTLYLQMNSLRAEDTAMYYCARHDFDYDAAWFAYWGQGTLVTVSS VL: EIVLTQSPATLSLSPGERATLSCRANSSVSYMYWYQQKPGQAPRPWIYLTSNRATGIPARFSGSGSGTDYTLTISSLEPEDFAVYYCQQWSSNPPTFGQGTKLEIK", "REPORTED_RESULT": 2.5}

// sample chimeric antibody VH0/Vκ0 (antibody, IgG4, V domains shown, IgG4 (S241P), kappa; also called VH0/Vκ0 (control); Chimeric VH0/Vκ0) VH: EVQLVESGGDLVKPGGSLKLACAASGFIFSSHGMSWVRQTPDKRLEWVATISSGGTYTYYPDSVKGRFTISRDNDKNTLYLQMNSLKSEDTAMYYCARHDFDYDAAWFAYWGQGTLVTVSS VL: QIVLTQSPALMSASPGVKVTMTCSANSSVSYMYWYRQKPRSSPKPWIYLTSNLASGVPARFSGSGSGTSYSLTISSMEAEDAATYYCQQWSSNPPTFGSGTKLEIK , its relative KD to VH0/Vκ0 was 1
